Experiment: chemical genetic growth profiling, strain panel (AID 1159580);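 note: tested at 20 µM; growth read once vehicle control cultures reached saturation at 30 °C; 1 = growth at the plate median or of vehicle wells; lower values mean less growth of the strain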
Conditions: S. cerevisiae deletion strains, growth OD, locus YML016C, strain PPZ1, stronger effect = lower value
Among all 5,500 compounds or so, about 2,000 (36%) were called active. Not shown: some 18% with an inconclusive outcome. The list shows a part of the results.
Measured Parameter: normalized growth
Give a plain numeric answer without units written out.

Solved cases below.
>>> measured("Cc1cccc(Nc2ccncc2S(=O)(=O)NC(=O)NC(C)C)c1")
1.01
>>> measured("Cc1cc(O)c(C=O)c2c1C(=O)Oc1c(COC(=O)/C=C/C(=O)O)c(O)c(C(=O)O)c(C)c1O2")
0.957
>>> measured("Cc1nc2ccccn2c(=O)c1CCN1CCC(C(=O)c2ccc(F)cc2)CC1")
1.02
>>> measured("O=c1[nH]cnc2[nH]ncc12")
1.01

# normalized growth lookup, item Cc1cc(C)cc(OCC2CNC(=O)O2)c1 (stereo not given)
1.01
